- Tested on: LK-2
- ASSAY: relative viability (nuclei count vs DMSO), 5 days (fraction); higher = more cells survive
- CONDITION NOTES: first compound 0.1 µM
We label by threshold. Values of relative viability strictly beneath 0.6 are t. Values of 0.6 and up are f.

Consider the following illustrative entries.
INSERT INTO assay_data (molecule, system_name, assigned_category) VALUES
  ('O=c1cc(N2CCOCC2)oc2c(-c3cccc4c3sc3ccccc34)cccc12 + CC1(C)CCC(c2ccc(Cl)cc2)=C(CN2CCN(c3ccc(C(=O)NS(=O)(=O)c4ccc(N[C@H](CCN5CCOCC5)CSc5ccccc5)c(S(=O)(=O)C(F)(F)F)c4)cc3)CC2)C1 [Navitoclax] (partner 0.5 µM)', 'LK-2', 'f'),
  ('O=c1cc(N2CCOCC2)oc2c(-c3cccc4c3sc3ccccc34)cccc12 + C[C@]1(O)C[C@@H](c2nc(-c3ccc4ccc(-c5ccccc5)nc4c3)c3c(N)nccn32)C1 [Linsitinib] (partner 1 µM)', 'LK-2', 'f'),
  ('O=c1cc(N2CCOCC2)oc2c(-c3cccc4c3sc3ccccc34)cccc12 + NC(=O)Nc1cc(-c2cccc(F)c2)sc1C(=O)N[C@H]1CCCNC1 [AZD7762] (partner 0.2 µM)', 'LK-2', 't'),
  ('CCN(CC)CCCCNc1ncc2cc(-c3cc(OC)cc(OC)c3)c(NC(=O)NC(C)(C)C)nc2n1 + CC(=O)Nc1cccc(-n2c(=O)n(C3CC3)c(=O)c3c(Nc4ccc(I)cc4F)n(C)c(=O)c(C)c32)c1 [Trametinib] (partner 0.02 µM)', 'LK-2', 'f'),
  ('O=c1cc(N2CCOCC2)oc2c(-c3cccc4c3sc3ccccc34)cccc12 + Cc1nc(NC(=O)N2CCC[C@H]2C(N)=O)sc1-c1ccnc(C(C)(C)C(F)(F)F)c1 [Alpelisib] (partner 2 µM)', 'LK-2', 'f');

I wonder whether O=c1cc(N2CCOCC2)oc2c(-c3cccc4c3sc3ccccc34)cccc12 + N=C(N)NC(=N)NCCc1ccccc1 [Phenformin] (partner 250 µM) has relative viability below 0.6. Can you tell?
t

I wonder whether O=c1cc(N2CCOCC2)oc2c(-c3cccc4c3sc3ccccc34)cccc12 + Cc1cc(Nc2cc(N3CCN(C)CC3)nc(Sc3ccc(NC(=O)C4CC4)cc3)n2)n[nH]1 [Tozasertib] (partner 0.1 µM) has relative viability below 0.6. Can you tell?
t
